# Tested on: human CD34+ bone marrow cells
# test: Bone marrow CD34+ cell growth inhibition (myelosuppressive potential), luminescence assay
# Format: cell-based
# details: normalized IC50 ratio over reference compound of Example 18; incubation 9-10 days; higher ratio = reduced myelosuppression
Grouping rule (CD34 IC50 RATIO): bottom: < 2; middle: ≥ 2 and < 5; top: ≥ 5

Answered examples (5):
molecule	class-assignment
CC(=O)NC[C@@H]1OC(=O)N2c3ccc(-c4ccc(-n5cc(C(C)(C)O)nn5)nc4)cc3C[C@@H]12	middle
CC(=O)NC[C@@H]1OC(=O)N2c3ccc(-c4cccnc4)cc3C[C@H]12 [Example 18, reference compound]	bottom
CC(=O)NC[C@@H]1OC(=O)N2c3ccc(-c4ccc(-c5cc(CO)on5)nc4)cc3C[C@H]12	middle
Cn1ncc(-c2ccc(-c3ccc4c(c3)C[C@H]3[C@H](CO)OC(=O)N43)cn2)n1	top
Cn1nnc(-c2ccc(-c3ccc4c(c3)C[C@H]3[C@H](CO)OC(=O)N43)cn2)n1	middle

Task: Record O=C1O[C@@H](CO)[C@@H]2Cc3cc(-c4ccc(-n5cc(CF)nn5)nc4)ccc3N12 — which class?
Result: bottom

Task: Record Cc1cnnn1-c1ccc(-c2ccc3c(c2)C[C@H]2[C@H](CO)OC(=O)N32)cn1 — which class?
Result: top

Task: Record CC(=O)NC[C@@H]1OC(=O)N2c3ccc(-c4ccc(-n5cc(CO)nn5)nc4)cc3C[C@H]12 — which class?
Result: middle

Task: Record Cc1nnn(-c2ccc(-c3ccc4c(c3)C[C@H]3[C@H](CO)OC(=O)N43)cn2)c1C — which class?
Result: top

Task: Record O=C1OCCN1c1ccc(-c2ccc3c(c2)C[C@H]2[C@H](CO)OC(=O)N32)cn1 — which class?
Result: middle

Task: Record Cn1nnnc1-c1ccc(-c2ccc3c(c2)C[C@H]2[C@H](CO)OC(=O)N32)cn1 — which class?
Result: middle

Task: Record Cc1nnc(-c2ccc(-c3ccc4c(c3)C[C@H]3[C@H](CO)OC(=O)N43)cn2)o1 — which class?
Result: middle

Task: Record Cc1cn(-c2ccc(-c3ccc4c(c3)C[C@H]3[C@H](CO)OC(=O)N43)cn2)nn1 — which class?
Result: middle

Task: Record N#CCc1cn(-c2ccc(-c3ccc4c(c3)C[C@H]3[C@H](CO)OC(=O)N43)cn2)nn1 — which class?
Result: bottom

Task: Record N#CCn1nnc(-c2ccc(-c3ccc4c(c3)C[C@H]3[C@H](CO)OC(=O)N43)cn2)n1 — which class?
Result: middle

Task: Record Cn1cc(-c2ccc(-c3ccc4c(c3)C[C@H]3[C@H](CO)OC(=O)N43)cn2)nn1 — which class?
Result: top
